Value source: patent US9096565B2

# study_target: one or more of HDAC-4, HDAC-5, HDAC-6, HDAC-7, HDAC-8, HDAC-9, HDAC-10 and HDAC-11
# experiment_notes: Inhibition of histone deacetylase enzymatic activity (summary statement over isoforms)
# measurement_context: Table 3, selected examples; HDAC isoform not given
pIC50: −log10 of the molar value.
assay_endpoint: pIC50

Could you please provide reported pIC50 for O=C(NO)C(Sc1nc(-c2ccccc2)c(-c2ccccc2)[nH]1)c1ccccc1 (stereo not drawn) ? Thanks!
4.82 to 6.00

Tell me its pIC50 given Cc1cccc(COc2cccc(C(C(=O)NO)c3ccccc3)c2)c1 (stereo not drawn) as the entry.
4.82 to 6.00

Indicate the recorded pIC50 value for this compound: O=C(Nc1cccc(C(C(=O)NO)c2ccccc2)c1)c1ccccc1 (stereo not drawn)
4.82 to 6.00

Next:
Provide measured pIC50 value, entry: O=C(NO)C(c1ccccc1)c1nnc(-c2cccs2)s1 (stereo not drawn)
> 6.00

Give the measured pIC50 for O=C(NO)C(c1ccccc1)N1CCC(N2CCOCC2)CC1 (stereo not drawn)
4.82 to 6.00

Consider the compound CC(C)NC(=O)N1CCCN(C(C(=O)NO)c2ccccc2)CC1 (stereo not drawn) . State its measured pIC50.
4.82 to 6.00

Quick one: give measured pIC50 for Cn1cc(C2CCN(C(C(=O)NO)c3ccccc3)CC2)c2ccccc21 (stereo not drawn)
> 6.00

Name the recorded pIC50 of the compound listed here: COc1cccc(C(C(=O)NO)c2ccccc2)c1 (stereo not drawn)
4.82 to 6.00

Fill in reported pIC50 for this entry: Cn1cnc(S(=O)(=O)N2CCCN(C(C(=O)NO)c3ccccc3)CC2)c1 (stereo not drawn)
4.82 to 6.00
